# Test system: SUM149PT tumor organoids
# EXPERIMENT_SUMMARY: Tumor organoid cytotoxicity, CellTiter-Glo 3D
# Assay type: cell-based
# SETUP_CONDITIONS: Homo sapiens, 96 h, read-out: IC50 tumor organoid viability
Measured IC50, listed per entry.
Please reply with the bare figure in µM and do not write the unit itself.

1. O=C(COc1ccccc1)c1cn(CC(=O)N2CCOCC2)c2ccccc12	251

Now turn to the next molecule.
Provide value of IC50 for this record tested with SUM149PT tumor organoids: O=C(c1cc(Cc2n[nH]c(=O)c3ccccc23)ccc1F)N1CCN(C(=O)C2CC2)CC1 [olaparib, reference compound]
85

====

# TARGET_SYSTEM: PARP1–HPF1 complex (Homo sapiens, UniProt P09874+Q9NWY4)
# Construct: made in house
# Sequence (P09874 whole entry): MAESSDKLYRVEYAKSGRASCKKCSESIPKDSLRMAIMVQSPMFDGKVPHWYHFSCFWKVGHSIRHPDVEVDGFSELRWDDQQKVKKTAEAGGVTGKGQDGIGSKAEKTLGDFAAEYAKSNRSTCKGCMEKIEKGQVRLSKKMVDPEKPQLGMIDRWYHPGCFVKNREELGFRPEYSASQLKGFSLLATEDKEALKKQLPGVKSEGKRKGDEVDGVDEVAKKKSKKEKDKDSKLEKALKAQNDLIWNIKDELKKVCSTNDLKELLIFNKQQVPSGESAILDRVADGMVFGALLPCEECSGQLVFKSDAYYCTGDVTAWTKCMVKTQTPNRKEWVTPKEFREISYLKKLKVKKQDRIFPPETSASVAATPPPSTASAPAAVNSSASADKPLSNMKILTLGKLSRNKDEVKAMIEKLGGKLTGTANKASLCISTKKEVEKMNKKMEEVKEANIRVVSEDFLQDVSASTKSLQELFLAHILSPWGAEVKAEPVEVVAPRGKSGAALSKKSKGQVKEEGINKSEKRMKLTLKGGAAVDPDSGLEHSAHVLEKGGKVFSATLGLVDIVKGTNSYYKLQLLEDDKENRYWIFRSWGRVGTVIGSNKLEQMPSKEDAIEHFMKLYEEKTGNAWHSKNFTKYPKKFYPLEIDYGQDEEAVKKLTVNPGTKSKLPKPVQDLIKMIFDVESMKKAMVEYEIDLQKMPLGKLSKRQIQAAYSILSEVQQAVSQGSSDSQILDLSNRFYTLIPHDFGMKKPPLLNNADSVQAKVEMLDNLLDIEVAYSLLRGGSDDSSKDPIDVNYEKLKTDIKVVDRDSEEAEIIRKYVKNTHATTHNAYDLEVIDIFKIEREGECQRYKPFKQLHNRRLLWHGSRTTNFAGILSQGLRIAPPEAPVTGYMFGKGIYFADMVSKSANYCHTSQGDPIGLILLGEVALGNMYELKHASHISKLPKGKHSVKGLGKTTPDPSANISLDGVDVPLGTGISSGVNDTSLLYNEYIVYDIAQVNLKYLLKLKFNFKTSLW
# Sequence (Q9NWY4 whole entry): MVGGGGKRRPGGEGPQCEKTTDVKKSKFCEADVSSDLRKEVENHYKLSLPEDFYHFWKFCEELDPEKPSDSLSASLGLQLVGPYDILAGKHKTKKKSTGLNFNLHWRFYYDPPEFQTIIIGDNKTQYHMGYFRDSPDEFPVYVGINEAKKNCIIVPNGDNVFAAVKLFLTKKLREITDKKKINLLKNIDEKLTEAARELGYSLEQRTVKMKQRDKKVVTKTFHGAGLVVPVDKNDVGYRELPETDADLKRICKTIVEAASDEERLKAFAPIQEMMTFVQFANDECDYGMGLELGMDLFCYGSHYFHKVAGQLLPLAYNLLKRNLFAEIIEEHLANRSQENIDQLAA
# EXPERIMENT_SUMMARY: FP assay of PARP1–HPF1–DNA complex, PARP-directed library screen
# Format: biochemical
QUANTITY: pIC50
Conceptually, pIC50 converts a concentration in mol/L into minus its log10.

Provide value of pIC50 for this record tested with PARP1–HPF1 complex (Homo sapiens, UniProt P09874+Q9NWY4): NC(=O)c1ccccc1 [benzamide, reference compound]
4.85

====

# TARGET_SYSTEM: PARP1–HPF1 complex (Homo sapiens, UniProt P09874+Q9NWY4)
# Construct: made in house
# EXPERIMENT_SUMMARY: FP assay of PARP1–HPF1–DNA complex, dose response of hits from the 10,000 compound pilot HTS
# Type: biochemical
# SETUP_CONDITIONS: dose response of HTS hits in duplicate; 10 nM PARP1, 100 nM HPF1, 15 min
Threshold 20 µM: IC50 strictly smaller gives criterion met, otherwise criterion not met.

1) CCNCC#CCOc1ccc(Br)cc1 [compound 60]	criterion met
2) COc1cccc(-c2nc(CC(=O)Nc3ccc(C)c(C)c3)no2)c1 [compound 88]	criterion met
3) N#Cc1c(NC(=O)C#Cc2ccccc2)sc2c1CCC2 [compound 145]	criterion not met
4) CCNC/C=C/COc1ccccc1OCC [compound 116]	criterion not met
5) N#Cc1sc2nc(-c3ccc(F)cc3F)ccc2c1N [compound 151]	criterion not met

Please check: IC50 for CCNCC#CCOc1cccc(C(F)(F)F)c1 [compound 89] , strictly under 20 µM or not?
criterion met
